assayedTarget: N-terminally GST-tagged DLK (catalytic domain amino acid 1-520) (Homo sapiens)
Construct: N-terminally GST-tagged DLK (catalytic domain amino acid 1-520)
Sequence (Q12852 1-520): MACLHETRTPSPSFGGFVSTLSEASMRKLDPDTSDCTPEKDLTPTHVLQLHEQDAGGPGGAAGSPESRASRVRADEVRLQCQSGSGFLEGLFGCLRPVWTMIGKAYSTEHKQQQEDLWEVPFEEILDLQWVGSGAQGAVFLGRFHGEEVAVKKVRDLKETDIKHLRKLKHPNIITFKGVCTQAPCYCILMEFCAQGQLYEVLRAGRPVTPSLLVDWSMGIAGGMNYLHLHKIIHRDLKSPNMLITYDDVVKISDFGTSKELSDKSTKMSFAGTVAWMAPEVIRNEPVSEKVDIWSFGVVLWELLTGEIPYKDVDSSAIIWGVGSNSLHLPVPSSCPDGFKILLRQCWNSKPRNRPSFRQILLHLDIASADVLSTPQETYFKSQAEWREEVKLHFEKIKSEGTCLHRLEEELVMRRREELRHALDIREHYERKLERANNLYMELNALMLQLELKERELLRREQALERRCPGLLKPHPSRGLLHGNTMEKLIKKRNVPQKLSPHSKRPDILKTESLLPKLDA
assayExplanation: DLK TR-FRET inhibition assay
condition: 5 nM GST-DLK, 40 nM HIS-MKK4 K131M substrate, 30 μM ATP, 60 minutes at ambient temperature
valueKind: Ki (nM)

I. CC(C)n1nc(-c2cnc3ccn([C@H](C)c4ccccn4)c3c2)cc1[C@H]1[C@@H]2C[C@H](N3CCOCC3)C[C@@H]21 [compound 26]
II. CC(C)n1nc(-c2cnc(N)c(C(F)(F)F)c2)cc1[C@H]1[C@@H]2C[C@@H](N3CCCC3=O)C[C@@H]21 [compound 44]
III. CC(C)n1nc(-c2cnc(N)c(C(F)(F)F)c2)cc1[C@H]1[C@@H]2C[C@H](N3CCO[C@@H](C)C3)C[C@@H]21 [compound 108]
Query: Ranking field: Ki; order: falling. Your task in answering is to list the labels in the requested order.
Result: I, II, III
(I: 75.6 nM, II: 8.2 nM, III: 1.6 nM)

====

assayedTarget: N-terminally GST-tagged DLK (catalytic domain amino acid 1-520) (Homo sapiens)
Construct: N-terminally GST-tagged DLK (catalytic domain amino acid 1-520)
Sequence (Q12852 1-520): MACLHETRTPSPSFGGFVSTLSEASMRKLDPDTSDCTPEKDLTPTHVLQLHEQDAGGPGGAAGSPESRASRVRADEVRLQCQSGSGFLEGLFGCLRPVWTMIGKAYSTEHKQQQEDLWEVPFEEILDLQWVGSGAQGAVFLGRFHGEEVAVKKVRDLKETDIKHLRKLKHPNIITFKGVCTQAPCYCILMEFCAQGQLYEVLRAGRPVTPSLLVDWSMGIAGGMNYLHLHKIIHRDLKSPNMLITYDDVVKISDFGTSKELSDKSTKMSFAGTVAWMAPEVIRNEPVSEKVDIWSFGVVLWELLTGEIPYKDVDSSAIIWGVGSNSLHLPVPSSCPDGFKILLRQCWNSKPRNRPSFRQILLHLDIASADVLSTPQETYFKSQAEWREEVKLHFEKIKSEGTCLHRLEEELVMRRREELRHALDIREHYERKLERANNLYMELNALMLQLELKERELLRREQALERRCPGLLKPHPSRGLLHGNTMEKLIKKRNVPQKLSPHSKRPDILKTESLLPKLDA
assayExplanation: DLK TR-FRET inhibition assay
condition: 5 nM GST-DLK, 40 nM HIS-MKK4 K131M substrate, 30 μM ATP, 60 minutes at ambient temperature
valueKind: Ki (nM)

- smilesNotation: "CC(C)n1nc(-c2cnc(N)c(OC(F)F)c2)cc1[C@H]1[C@@H]2CC3(COC3)C[C@@H]21"
  observedResult: 4.5
- smilesNotation: "CO[C@@H]1CCN([C@@H]2C[C@@H]3[C@H](C2)[C@H]3c2cc(-c3cnc(N)c(OC(F)(F)F)c3)nn2C(C)C)C1"
  observedResult: 1.4
- smilesNotation: "Nc1ncc(-c2cc([C@H]3[C@@H]4C[C@H](N5CCOCC5)C[C@@H]43)n(CC(F)F)n2)cc1C(F)(F)F"
  observedResult: 3.79

A. CC(C)n1nc(-c2cnc(N)c(OC(F)(F)F)c2)cc1[C@H]1[C@@H]2C[C@H](N3CCN(C)CC3)C[C@@H]21
B. CC(C)n1nc(-c2cnc(N)c(OC(F)(F)F)c2)cc1[C@H]1[C@@H]2C[C@@H](N3CC(F)C3)C[C@@H]21
Query: Just curious, which one has the larger Ki reading, A or B ? Reply with the label of the item you choose.
Result: B

====

assayedTarget: N-terminally GST-tagged DLK (catalytic domain amino acid 1-520) (Homo sapiens)
Construct: N-terminally GST-tagged DLK (catalytic domain amino acid 1-520)
Sequence (Q12852 1-520): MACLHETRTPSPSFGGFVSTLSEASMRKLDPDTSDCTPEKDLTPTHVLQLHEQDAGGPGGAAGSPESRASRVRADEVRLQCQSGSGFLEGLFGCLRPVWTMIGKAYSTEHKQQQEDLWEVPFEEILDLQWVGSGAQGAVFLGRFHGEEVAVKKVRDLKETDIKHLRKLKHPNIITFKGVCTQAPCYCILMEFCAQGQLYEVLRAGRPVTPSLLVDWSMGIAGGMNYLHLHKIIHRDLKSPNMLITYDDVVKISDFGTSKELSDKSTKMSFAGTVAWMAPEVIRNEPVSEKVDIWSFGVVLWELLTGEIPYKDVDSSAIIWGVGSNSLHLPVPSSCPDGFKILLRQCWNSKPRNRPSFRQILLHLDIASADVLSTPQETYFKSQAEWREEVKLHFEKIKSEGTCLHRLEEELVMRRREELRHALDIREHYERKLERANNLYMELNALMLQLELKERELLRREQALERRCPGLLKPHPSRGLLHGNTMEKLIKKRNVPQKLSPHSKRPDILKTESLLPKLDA
assayExplanation: DLK TR-FRET inhibition assay
condition: 5 nM GST-DLK, 40 nM HIS-MKK4 K131M substrate, 30 μM ATP, 60 minutes at ambient temperature
pKi: −log10 of the molar value.
valueKind: pKi

- compound: "CC(=O)N(C)[C@H]1C[C@@H]2[C@H](C1)[C@H]2c1cc(-c2cnc(N)c(C(F)(F)F)c2)nn1C(C)C"
  pKi: 8.52
- compound: "CC(C)n1nc(-c2cnc(N)c(OC(F)F)c2)cc1[C@H]1[C@@H]2C[C@@H](OC3COC3)C[C@@H]21"
  pKi: 8.26
- compound: "COC1CCN([C@H]2C[C@@H]3[C@H](C2)[C@H]3c2cc(-c3cnc(N)c(OC(F)F)c3)nn2C(C)C)CC1"
  pKi: 8.54

I. CC(C)n1nc(-c2cnc(N)c(C(F)(F)F)c2)cc1[C@H]1[C@@H]2C[C@H](N3CCN(C)C[C@@H]3C)C[C@@H]21
II. COCC1(F)CCN(C2C[C@@H]3C(c4cc(-c5cnc(N)c(OC(F)F)c5)nn4C(C)C)[C@@H]3C2)C1 (single isomer, unassigned) [compound 174]
Query: Parameter metric = pKi. Return the lower-valued option from I and II . Reply with the label of the item you choose.
Result: II

====

assayedTarget: N-terminally GST-tagged DLK (catalytic domain amino acid 1-520) (Homo sapiens, UniProt Q12852)
Construct: N-terminally GST-tagged DLK (catalytic domain amino acid 1-520)
Sequence (Q12852 1-520): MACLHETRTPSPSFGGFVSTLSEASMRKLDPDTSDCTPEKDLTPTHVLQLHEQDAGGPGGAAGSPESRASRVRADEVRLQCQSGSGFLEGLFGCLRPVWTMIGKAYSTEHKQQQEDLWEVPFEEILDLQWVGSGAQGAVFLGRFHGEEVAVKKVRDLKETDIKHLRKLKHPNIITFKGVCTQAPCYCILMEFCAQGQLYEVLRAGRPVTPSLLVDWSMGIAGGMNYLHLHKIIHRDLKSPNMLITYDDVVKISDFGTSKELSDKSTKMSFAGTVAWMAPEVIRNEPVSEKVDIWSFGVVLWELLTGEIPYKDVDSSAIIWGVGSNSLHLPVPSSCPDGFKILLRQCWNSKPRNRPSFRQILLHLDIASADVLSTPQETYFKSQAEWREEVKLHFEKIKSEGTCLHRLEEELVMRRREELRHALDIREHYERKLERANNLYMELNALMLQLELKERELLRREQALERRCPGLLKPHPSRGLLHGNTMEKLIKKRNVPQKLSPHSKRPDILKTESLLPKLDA
assayExplanation: DLK TR-FRET inhibition assay
condition: 5 nM GST-DLK, 40 nM HIS-MKK4 K131M substrate, 30 μM ATP, 60 minutes at ambient temperature
pKi: −log10 of the molar value.
valueKind: pKi

- smilesNotation: "COC1CN([C@@H]2C[C@@H]3[C@H](C2)[C@H]3c2cc(-c3cnc(N)c(OC(F)F)c3)nn2C(C)C)C1"
  observedResult: 8.56
- smilesNotation: "CC(C)n1nc(-c2cnc(N)c(C(F)(F)F)c2)cc1[C@H]1[C@@H]2C[C@H](N3CCCC3=O)C[C@@H]21"
  observedResult: 8.52
- smilesNotation: "CC(C)n1nc(-c2cnc(N)c(C(F)(F)F)c2)cc1[C@H]1[C@@H]2C[C@H](N3CCN(C)C4(COC4)C3)C[C@@H]21"
  observedResult: 8.37
